- Measurement Target: T1, recombinant purified human RGM A (R&D Systems Cat#2459-RM) (human) (UniProt Q96B86)
- T1 sequence: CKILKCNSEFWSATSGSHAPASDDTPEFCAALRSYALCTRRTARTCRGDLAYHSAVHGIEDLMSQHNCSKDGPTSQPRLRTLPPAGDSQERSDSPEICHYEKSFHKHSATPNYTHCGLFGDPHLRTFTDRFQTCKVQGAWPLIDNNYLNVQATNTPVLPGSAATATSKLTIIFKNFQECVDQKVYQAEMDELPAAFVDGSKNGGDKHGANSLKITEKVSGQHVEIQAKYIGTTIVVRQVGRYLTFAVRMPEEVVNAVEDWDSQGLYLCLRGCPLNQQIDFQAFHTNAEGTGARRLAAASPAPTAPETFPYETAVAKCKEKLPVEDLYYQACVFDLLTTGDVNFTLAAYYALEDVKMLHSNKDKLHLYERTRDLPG
- Assay Procedure: competition ELISA on coated hRGMA; competitor: biotinylated chimeric 5F9
Listing of entries alongside the reported IC50.

Observe how each entry below is paired with its result.
>>> recorded_value("h5F9.5 (antibody, human IgG1, V domains shown) VH: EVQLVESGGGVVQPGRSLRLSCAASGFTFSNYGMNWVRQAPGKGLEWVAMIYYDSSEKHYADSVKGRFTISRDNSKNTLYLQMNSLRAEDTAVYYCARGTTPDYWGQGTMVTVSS VL: DVVMTQSPLSLPVTLGQPASISCRSSQSLEYSDGYTFLEWFQQRPGQSPRRLIYEVSNRFSGVPDRFSGSGSGTDFTLKISRVEAEDVGVYYCFQATHDPLTFGQGTKLEIKR")
"> 10 µg/mL"
>>> recorded_value("h5F9.4 (antibody, human IgG1, V domains shown) VH: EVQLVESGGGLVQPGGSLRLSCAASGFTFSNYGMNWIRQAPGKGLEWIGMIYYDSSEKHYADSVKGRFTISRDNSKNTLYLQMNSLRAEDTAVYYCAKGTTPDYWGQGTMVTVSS VL: DIVMTQTPLSLSVTPGQPASISCRSSQSLEYSDGYTFLEWYLQKPGQSPQLLIYEVSNRFSGVPDRFSGSGSGTDFTLKISRVEAEDVGVYYCFQATHDPLTFGQGTKLEIKR")
"> 10 µg/mL"

Moving on to another binder below.
// query What value of IC50 has been recorded for this entry: h5F9.20 (antibody, human IgG1, V domains shown) VH: EVQLVESGGGVVQPGRSLRLSCAASGFTFSNYGMNWIRQAPGKGLEWIGMIYYDSSEKHYADSVKGRFTISRDNSKNTLYLQMNSLRAEDTAVYYCAKGTTPDYWGQGTMVTVSS VL: DVVLTQSPLSLPVTLGQPASISCRSSQSLEYSDGYTFLEWFQQRPGQSPRRLIYEVSNRFSGVPDRFSGSGSGTDFTLKISRVEAEDVGVYYCFQATHDPLTFGQGTKLEIKR
// result > 2 µg/mL
